target: Voltage-dependent T-type calcium channel subunit alpha-1G (Homo sapiens, UniProt O43497); test: Inhibition of human Cav3.1 alpha1G expressed in HEK293 cells assessed as inhibition of calcium influx by FLIPR assay
Sequence (O43497 whole entry): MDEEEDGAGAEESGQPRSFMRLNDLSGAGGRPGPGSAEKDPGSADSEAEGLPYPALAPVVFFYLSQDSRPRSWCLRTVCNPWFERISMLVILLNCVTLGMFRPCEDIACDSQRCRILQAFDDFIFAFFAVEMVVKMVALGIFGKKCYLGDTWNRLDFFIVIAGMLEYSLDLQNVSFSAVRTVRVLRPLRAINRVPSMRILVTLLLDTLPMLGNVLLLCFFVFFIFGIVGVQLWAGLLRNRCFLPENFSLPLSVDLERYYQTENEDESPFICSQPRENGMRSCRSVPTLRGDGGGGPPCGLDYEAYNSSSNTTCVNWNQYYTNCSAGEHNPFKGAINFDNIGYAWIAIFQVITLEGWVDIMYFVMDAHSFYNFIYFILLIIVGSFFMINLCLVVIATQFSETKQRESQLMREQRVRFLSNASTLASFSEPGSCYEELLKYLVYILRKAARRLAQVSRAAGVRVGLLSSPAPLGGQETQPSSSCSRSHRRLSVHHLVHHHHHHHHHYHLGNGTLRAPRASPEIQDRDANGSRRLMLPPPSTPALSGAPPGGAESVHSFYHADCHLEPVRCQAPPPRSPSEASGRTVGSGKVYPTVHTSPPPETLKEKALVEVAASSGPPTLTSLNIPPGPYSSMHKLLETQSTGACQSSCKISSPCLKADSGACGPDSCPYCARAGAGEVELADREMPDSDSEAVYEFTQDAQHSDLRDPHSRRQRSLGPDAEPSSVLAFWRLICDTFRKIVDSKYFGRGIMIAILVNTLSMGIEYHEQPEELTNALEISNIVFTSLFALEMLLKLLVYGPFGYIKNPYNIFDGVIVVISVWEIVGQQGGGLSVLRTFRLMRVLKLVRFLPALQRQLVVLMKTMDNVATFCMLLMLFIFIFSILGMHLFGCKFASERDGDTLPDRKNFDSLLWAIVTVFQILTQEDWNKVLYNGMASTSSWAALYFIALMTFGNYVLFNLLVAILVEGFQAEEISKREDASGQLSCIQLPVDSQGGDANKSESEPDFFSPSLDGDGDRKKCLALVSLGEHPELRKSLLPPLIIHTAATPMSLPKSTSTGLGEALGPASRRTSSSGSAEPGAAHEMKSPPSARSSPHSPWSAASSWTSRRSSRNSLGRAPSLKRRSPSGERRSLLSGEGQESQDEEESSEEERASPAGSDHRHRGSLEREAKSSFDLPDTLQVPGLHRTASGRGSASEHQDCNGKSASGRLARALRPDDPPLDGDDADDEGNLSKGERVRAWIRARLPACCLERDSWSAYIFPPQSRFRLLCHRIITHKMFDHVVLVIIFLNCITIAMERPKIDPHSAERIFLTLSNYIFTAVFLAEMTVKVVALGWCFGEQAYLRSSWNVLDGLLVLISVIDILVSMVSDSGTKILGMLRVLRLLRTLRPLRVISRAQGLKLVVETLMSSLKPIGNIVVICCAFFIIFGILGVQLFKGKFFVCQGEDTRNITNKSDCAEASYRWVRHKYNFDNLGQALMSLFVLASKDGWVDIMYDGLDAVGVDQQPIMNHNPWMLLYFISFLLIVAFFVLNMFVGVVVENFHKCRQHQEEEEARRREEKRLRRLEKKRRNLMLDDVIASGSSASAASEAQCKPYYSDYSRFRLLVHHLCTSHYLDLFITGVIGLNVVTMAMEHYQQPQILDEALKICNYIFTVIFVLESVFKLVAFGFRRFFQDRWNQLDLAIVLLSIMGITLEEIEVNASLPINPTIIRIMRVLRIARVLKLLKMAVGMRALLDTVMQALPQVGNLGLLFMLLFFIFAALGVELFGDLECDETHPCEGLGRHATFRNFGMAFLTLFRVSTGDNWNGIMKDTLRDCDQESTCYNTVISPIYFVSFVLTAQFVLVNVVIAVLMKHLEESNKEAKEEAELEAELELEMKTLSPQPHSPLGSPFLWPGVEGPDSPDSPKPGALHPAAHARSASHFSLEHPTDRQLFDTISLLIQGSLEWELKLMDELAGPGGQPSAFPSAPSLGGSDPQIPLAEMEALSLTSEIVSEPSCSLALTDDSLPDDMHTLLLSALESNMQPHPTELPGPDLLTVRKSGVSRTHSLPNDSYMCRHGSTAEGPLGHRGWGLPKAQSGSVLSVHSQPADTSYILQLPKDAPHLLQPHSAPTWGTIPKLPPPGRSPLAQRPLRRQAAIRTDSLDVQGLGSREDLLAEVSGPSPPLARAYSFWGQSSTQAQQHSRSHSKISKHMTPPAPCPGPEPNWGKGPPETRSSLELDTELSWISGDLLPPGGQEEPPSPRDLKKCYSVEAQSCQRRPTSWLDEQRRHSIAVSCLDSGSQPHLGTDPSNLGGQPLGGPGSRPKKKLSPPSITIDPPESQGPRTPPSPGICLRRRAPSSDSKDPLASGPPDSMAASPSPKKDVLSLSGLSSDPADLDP
MEASURED ENDPOINT: IC50 (µM)
The reply should contain only the number, in µM.

For the compound CCC(CC)(CNC(=O)C1CCN(CCc2ccccc2F)CC1)c1ccc(F)cc1 , what IC50 is on record?
0.09

Same question, CCC(CC)(CNC(=O)C1CCN(CCc2ccc(F)cc2)CC1)c1ccc(F)cc1 this time
0.18

Item: O=C(NCC1(c2ccc(F)cc2)CCCCC1)C1CCN(Cc2ccccc2)CC1
0.51

Now this one: CC(C)(CNC(=O)C1CCN(Cc2ccccc2)CC1)c1ccc(F)cc1
0.13

Here is the next compound: O=C(NCC1(c2ccc(F)cc2)CCC1)C1CCN(Cc2ccccc2)CC1
0.39

Entry CCC(CC)(CNC(=O)C1CCN(CCCCc2ccccc2)CC1)c1ccc(F)cc1 please
0.25

Same for CCC(CC)(CNC(=O)C1CCN(Cc2cccc(F)c2)CC1)c1ccc(F)cc1
0.13

Can you handle CCC(CC)(CNC(=O)C1CCN(Cc2ccccc2OC)CC1)c1ccc(F)cc1 next?
0.12

// same read-out, input: CN(CC1(c2ccc(F)cc2)CCCCC1)C(=O)C1CCN(Cc2ccccc2)CC1
0.75

----------
Exercise: for every item that follows, state its recorded pIC50.
target: Voltage-dependent T-type calcium channel subunit alpha-1G (Homo sapiens, UniProt O43497); experiment: Inhibition of human Cav3.1 alpha1G expressed in HEK293 cells assessed as inhibition of calcium influx by FLIPR assay; assay type: cell-based
// field semantics: pIC50 = negative decimal log of concentration (mol/L)

Would you mind telling me what pIC50 value was observed for CCC(CC)(CNC(=O)C1CCN(Cc2ccc(F)cc2)CC1)c1ccc(F)cc1 ?
7.09

Similarly, CCC(CC)(CNC(=O)C1CCN(CCc2cccc(F)c2)CC1)c1ccc(F)cc1 ?
6.89

What would you report for Fc1ccc(C2(CNCC3CCN(Cc4ccccc4)CC3)CCCCC2)cc1 ?
5.92

Moving on to CCC(CC)(CNC(=O)C1CCN(CCc2ccc(OC)cc2)CC1)c1ccc(F)cc1
6.11

Ok, now CCC(CC)(CNC(=O)C1CCN(CCc2ccccc2OC)CC1)c1ccc(F)cc1
6.77

For CCC(CC)(CNC(=O)C1CCN(CCc2cccc(OC)c2)CC1)c1ccc(F)cc1 then?
6.85

Next up: CCC(CC)(CNC(=O)C1CCN(Cc2ccc(OC)cc2)CC1)c1ccc(F)cc1
6.70

And for CCC(CC)(CNC(=O)C1CCN(Cc2cccc(OC)c2)CC1)c1ccc(F)cc1 ?
7.03

Queued: O=C(NCC1(c2ccc(F)cc2)CCCCC1)C1CCCN(Cc2ccccc2)C1 (stereo unspecified)
5.92

// next record CCC(CC)(CNC(=O)C1CCN(Cc2ccccc2)CC1)c1ccc(F)cc1
7.07

// repeat for O=C(NCC1(c2ccc(F)cc2)CCCCC1)C1CCCCN1Cc1ccccc1 (stereo unspecified) and report
5.52

Now the compound O=C(CCC1(c2ccc(F)cc2)CCCCC1)C1CCN(Cc2ccccc2)CC1
5.70

How about O=C(CC1(c2ccc(F)cc2)CCCCC1)NC1CCN(Cc2ccccc2)CC1 ?
6.07

Same lookup for COc1ccc(CN2CCC(C(=O)NCC3(c4ccc(F)cc4)CCCCC3)CC2)cc1OC , please.
6.49

Entry to check: CCC(CC)(CNC(=O)C1CCN(CCCc2ccccc2)CC1)c1ccc(F)cc1
6.62

Okay, and CCC(CC)(CNC(=O)C1CCN(CCc2ccccc2)CC1)c1ccc(F)cc1 ?
7.05

# repeat for O=C(NCC1(c2ccc(F)cc2)CCCC1)C1CCN(Cc2ccccc2)CC1
6.66

Consider next the compound CCC(CC)(CNC(=O)C1CCN(Cc2ccccc2F)CC1)c1ccc(F)cc1 in the same way.
7.44

What about O=C(NCC1(c2ccc(F)cc2)CCOCC1)C1CCN(Cc2ccccc2)CC1 ?
5.66

Ok, now CCCC(CCC)(CNC(=O)C1CCN(Cc2ccccc2)CC1)c1ccc(F)cc1
6.43

Please do the same for CCC(CC)(CNC(=O)C1CCN(CCOc2ccccc2)CC1)c1ccc(F)cc1 as well.
6.59

The measured values listed here are drawn from ChEMBL document CHEMBL1817645.
